- Tested on: MV4;11 cells
- measurementDescription: Cell viability assay (CellTiter-Glo) in MV4;11 cells, alone or with gilteritinib
- Assay type: cell-based
- conditionSummary: Homo sapiens, MV4-11, 72 h, read-out: MV4; 11 IC50
measurementLabel: pIC50
Scale: pIC50 equals -log10([C]), with [C] in mol/L.

compound	targetDesc	pIC50
O=C1CCC(N2C(=O)c3ccc(NCCCCCC(=O)N4CCC(c5ccccc5)CC4)cc3C2=O)C(=O)N1 (stereo not shown)	MV4;11 cells	7.77

// moving on: another record for pIC50
[in] Provide the reported pIC50 (system: MV4;11 cells) for O=C1CCC(N2C(=O)c3ccc(NCCCCCC(=O)N4CCN(c5ccccn5)CC4)cc3C2=O)C(=O)N1 (stereo not shown)
[out] 6.79

###

- Tested on: MOLM-13 cells
- measurementDescription: Cell viability assay (CellTiter-Glo) in MOLM-13 cells, alone or with gilteritinib
- Format: cell-based
- conditionSummary: Homo sapiens, MOLM-13, 72 h, MOLM-13 cells, compound alone (without gilteritinib), three days, CellTiter-Glo; read-out: MOLM-13 IC50
measurementLabel: IC50

[in] Look up and state reported IC50 for Cc1c(-c2cnc3ccccc3n2)cnn1[C@H]1C[C@H](CCCNc2ccc3c(c2)C(=O)N(C2CCC(=O)NC2=O)C3=O)C1 (stereo partly shown)
[out] > 1 µM

[in] Give recorded IC50. O=C1CCC(N2C(=O)c3ccc(NC[C@H]4C[C@H](n5cc(N6CCC(O)CC6)c(C6CC6)n5)C4)cc3C2=O)C(=O)N1 (stereo partly shown)
[out] > 1 µM

[in] State its IC50: O=C1CCC(N2C(=O)c3ccc(NCCCCCC(=O)N4CCC(n5cc(-c6ncccn6)cn5)CC4)cc3C2=O)C(=O)N1 (stereo not shown)
[out] 0.1 to 1 µM

[in] // fetch IC50 given entry CN1CC2CC1CN2c1ccc2ncc(-c3cn([C@H]4C[C@H](CCCNc5ccc6c(c5)C(=O)N(C5CCC(=O)NC5=O)C6=O)C4)nc3C3CC3)nc2c1 (stereo partly shown)
[out] 0.1 to 1 µM

[in] Supply recorded IC50 for O=C1CCC(N2C(=O)c3ccc(NC[C@H]4C[C@H](n5cc(-c6ncccc6NC6CCNCC6)c(C6CC6)n5)C4)cc3C2=O)C(=O)N1 (stereo partly shown) here.
[out] > 1 µM

[in] Give the value of IC50 reported for the following: O=C1CCC(N2C(=O)c3ccc(CNC(=O)C(F)(F)c4cccc(-n5cc(-c6cnc7ccccc7n6)cn5)c4)cc3C2=O)C(=O)N1 (stereo not shown)
[out] > 1 µM

###

- Tested on: MOLM-13 cells
- measurementDescription: Cell viability assay (CellTiter-Glo) in MOLM-13 cells, alone or with gilteritinib
- Format: cell-based
- conditionSummary: Homo sapiens, MOLM-13, 72 h, MOLM-13 cells, with gilteritinib 20 nM, three days, CellTiter-Glo; read-out: MOLM-13 IC50 gilteritinib
Entries and their IC50

Sample records with IC50:
compound	IC50
O=C1CCC(N2C(=O)c3ccc(NC[C@H]4C[C@H](n5cc(-c6cc7cc[nH]c7cn6)c(C6CC6)n5)C4)cc3C2=O)C(=O)N1 (stereo partly drawn)	10 to 100 nM
O=C1CCC(N2C(=O)c3ccc(NCCCCC(=O)N4CCC(n5cc(-c6cnc7ccccc7n6)cn5)CC4)cc3C2=O)C(=O)N1 (stereo not drawn)	< 10 nM

Let us examine a further case.
[in] Look up IC50 of O=C1CCC(N2C(=O)c3ccc(NC[C@H]4C[C@H](n5cc(-c6cccc(NC7CNC7)n6)c(C6CC6)n5)C4)cc3C2=O)C(=O)N1 (stereo partly drawn) and report it.
[out] > 1000 nM

###

- System: MV4;11 cells
- measurementDescription: Cell viability assay (CellTiter-Glo) in MV4;11 cells, alone or with gilteritinib
- Assay type: cell-based
- conditionSummary: Homo sapiens, 72 h; MV4;11 cells, with gilteritinib 10 nM, three days, CellTiter-Glo; read-out: MV4; 11 IC50 gilteritinib
pIC50: −log10 of the molar value.
Recorded pIC50 by entry

Use the examples below as a reference point.
compound	assayResult
O=C1CCC(N2Cc3ccc(CCCCCC(=O)N4CCN(c5ccccn5)CC4)cc3C2=O)C(=O)N1 (stereo not shown)	6.00 to 7.00
O=C1CCC(N2Cc3cc(OCCCCCC(=O)N4CCN(c5ccccc5)CC4)ccc3C2=O)C(=O)N1 (stereo not shown)	< 6.00
O=C1CCC(N2C(=O)c3ccc(NCCNc4cccc(-n5cc(-c6cnc7ccccc7n6)cn5)c4)cc3C2=O)C(=O)N1 (stereo not shown)	7.00 to 8.00

[in] Return pIC50 (reported value) for this compound: O=C1CCC(N2C(=O)c3ccc(NCCCC(=O)N4CCC(c5ccccc5)CC4)cc3C2=O)C(=O)N1 (stereo not shown)
[out] 6.00 to 7.00

###

- Test system: MV4;11 cells
- measurementDescription: Cell viability assay (CellTiter-Glo) in MV4;11 cells, alone or with gilteritinib
- Format: cell-based
- conditionSummary: Homo sapiens, 72 h; MV4;11 cells, with gilteritinib 10 nM, three days, CellTiter-Glo; read-out: MV4; 11 IC50 gilteritinib
measurementLabel: IC50

A selection of reference data follows.
compound	assayResult
O=C(CCn1cc(-c2cnc3ccccc3n2)c(C2CC2)n1)NCc1ccc2c(c1)C(=O)N(C1CCC(=O)NC1=O)C2=O (stereo not drawn)	> 1000 nM
O=C1CCC(N2Cc3ccc(CCCCCC(=O)N4CCC(c5ccccc5)CC4)cc3C2=O)C(=O)N1 (stereo not drawn)	10 to 100 nM
O=C1CCC(N2C(=O)c3ccc(NCCNc4cccc(-n5cc(-c6cnc7cccc(Br)c7n6)cn5)c4)cc3C2=O)C(=O)N1 (stereo not drawn)	10 to 100 nM
O=C1CCC(N2Cc3ccc(CCCCCCC(=O)N4CCC(c5ccccc5)CC4)cc3C2=O)C(=O)N1 (stereo not drawn)	10 to 100 nM
O=C1CCC(N2C(=O)c3ccc(NCCNc4cccc(N5CCN(c6ccccn6)CC5)c4)cc3C2=O)C(=O)N1 (stereo not drawn)	< 10 nM
O=C1CCC(N2C(=O)c3ccc(NCCCN4CC(N5CCN(c6ccccn6)CC5)C4)cc3C2=O)C(=O)N1 (stereo not drawn)	> 1000 nM

[in] Provide IC50 value for the following compound: O=C1CCC(N2C(=O)c3ccc(C4CCN(CCCn5cc(-c6cnc7ccccc7n6)cn5)CC4)cc3C2=O)C(=O)N1 (stereo not drawn)
[out] > 1000 nM

[in] Please give measured IC50 of the following entry: O=C1CCC(N2Cc3ccc(CCCCCC(=O)N4CCC(c5ccc(Cl)cc5)CC4)cc3C2=O)C(=O)N1 (stereo not drawn)
[out] 10 to 100 nM

###

- Test system: MOLM-13 cells
- measurementDescription: Cell viability assay (CellTiter-Glo) in MOLM-13 cells, alone or with gilteritinib
- Assay type: cell-based
- conditionSummary: Homo sapiens, MOLM-13, 72 h, MOLM-13 cells, compound alone (without gilteritinib), three days, CellTiter-Glo; read-out: MOLM-13 IC50
pIC50: −log10 of the molar value.
Quick reference for pIC50 among some compounds

Worked examples, 3 compounds total:
compound	pIC50
O=C1CCC(N2C(=O)c3ccc(NCCC[C@H]4C[C@H](n5cc(-c6nccc7[nH]ncc67)c(C6CC6)n5)C4)cc3C2=O)C(=O)N1 (some centres unmarked)	< 6.00
Cc1nn([C@H]2C[C@@H](CCCNc3ccc4c(c3)C(=O)N(C3CCC(=O)NC3=O)C4=O)C2)cc1-c1cnc2ccc(C3CCOCC3)cc2n1 (some centres unmarked)	> 8.00
O=C1CCC(N2C(=O)c3ccc(NCCc4cccc(N5CCC(n6cc(-c7cnc8ccccc8n7)cn6)CC5)c4)cc3C2=O)C(=O)N1 (centres unmarked)	6.00 to 7.00

[in] For the compound O=C1CCC(N2C(=O)c3ccc(NCCCCCn4cc(-c5cnc6ccccc6n5)cn4)cc3C2=O)C(=O)N1 (centres unmarked) , give its reported pIC50.
[out] < 6.00

[in] Determine from records and report pIC50 for O=C1CCC(N2C(=O)c3ccc(NCCCCCCn4cc(-c5cnc6ccc(C7CCNCC7)cc6n5)cn4)cc3C2=O)C(=O)N1 (centres unmarked)
[out] 7.00 to 8.00

[in] Look up and state reported pIC50 for O=C1CCC(N2C(=O)c3ccc(NCCC[C@H]4C[C@H](n5cc(-c6cnc7ccccc7n6)c(C6CC6)n5)C4)cc3C2=O)C(=O)N1 (some centres unmarked)
[out] 7.00 to 8.00

[in] Input CN1CCC(Nc2ccnc(-c3cn([C@H]4C[C@H](CNc5ccc6c(c5)C(=O)N(C5CCC(=O)NC5=O)C6=O)C4)nc3C3CC3)c2)CC1 (some centres unmarked) , output reported pIC50.
[out] < 6.00

[in] For the compound O=C1CCC(N2C(=O)c3ccc(NCCNC(=O)N4CCC(n5cc(-c6cnc7ccccc7n6)cn5)CC4)cc3C2=O)C(=O)N1 (centres unmarked) , report pIC50.
[out] < 6.00

[in] Retrieve pIC50 measured for Cc1nn([C@H]2C[C@H](CCCNc3ccc4c(c3)C(=O)N(C3CCC(=O)N(C)C3=O)C4=O)C2)cc1-c1cnc2ccccc2n1 (some centres unmarked) and print it.
[out] < 6.00

[in] Provide one value: measured pIC50 of O=C1CCC(N2C(=O)c3ccc(NCCCCCC(=O)N4CCC(n5cc(-c6cnc7cccc(C8CCNCC8)c7n6)cn5)CC4)cc3C2=O)C(=O)N1 (centres unmarked)
[out] 7.00 to 8.00

[in] Dear colleague, please send me the reported pIC50 for O=C1CCC(N2C(=O)c3ccc(NC[C@H]4C[C@H](n5cc(-c6nccc7[nH]ncc67)c(C6CC6)n5)C4)cc3C2=O)C(=O)N1 (some centres unmarked) when you can.
[out] 7.00 to 8.00
